Target or system NCI-H460 lung: recorded GI50 listed per item.

CCCn1c2c(c3ccccc3c1=O)C(=O)c1cc3c(cc1-2)OCO3 | 26.8 µM
COc1ccc(-c2cnoc2-c2ccc(OC)cc2O)cc1 | 3.24 µM
CCOC(=O)c1c2c(n(Cc3ccc(Cl)cc3Cl)c1C)-c1nc(Cc3ccccc3)[nH]c1C(=O)C2=O | 2.27 µM
O=C(NNC(=O)C1CCN(S(=O)(=O)c2ccc(-c3ccccc3)cc2)CC1)c1ccc(C(F)(F)F)cc1 | > 50 µM

Assay NCI-H460 lung, sample COc1cccc(-n2ncc3c(N/N=C/c4ccc(F)cc4)ncnc32)c1 , GI50 read: 10.3 µM

Measured GI50 for this entry C=CCOC1=CC(=O)c2ccccc2C1=O on NCI-H460 lung: 11.6 µM

Lab note: molecule C=C1C(=O)O[C@H]2[C@H]1CC/C(COC(=O)NCc1ccc(Cn3c(=O)sn(CCI)c3=O)cc1)=C\CC[C@@]1(C)O[C@@H]21 tested on NCI-H460 lung; recorded GI50 was 6.42 µM

Record for COC(=O)[C@@H]1CCCN1C(=O)[C@@H]1CCCN1C(=O)[C@H](Cc1ccccc1)NC(=S)Nc1cc(C(F)(F)F)cc(C(F)(F)F)c1 under target or system NCI-H460 lung: GI50 reported as 3.4 µM

The molecule COC(=O)c1cc2cc(-c3ccc(OC)cc3)cnc2[nH]1 , tested on NCI-H460 lung, showed GI50 of 0.565 µM

* * *

We begin with a simple list: items and their reported TGI.
- Tested on: ACHN renal
- method notes: NCI tumour cell line growth inhibition, 48 h
Numeric answer only, unit µM assumed.

For orientation, consider the following solved cases.
COc1cc([C@@H]2c3cc4c(cc3[C@@H](NC(=O)c3cccc(N)c3)C3COC(=O)[C@@H]32)OCO4)cc(OC)c1O (some centres undefined) | 2.4
O=c1ccc(N=Nc2ccccc2)ccc1Cl | 10.2
C=C(C)[C@@H]1CC[C@]2(COC(C)=O)CC[C@]3(C)[C@H](CC[C@@H]4[C@@]5(C)CCCN(C(C)=O)C(C)(C)[C@@H]5CC[C@]43C)[C@@H]12 | 3.07

Turning now to a further record.
Field TGI (entry COc1ccc(/C=N/Nc2nc(N)nc(N3CCCC3)c2C#N)cc1 ) reads 34.5

* * *

- Tested on: COLO 205 colon
- method notes: NCI tumour cell line growth inhibition, 48 h
outcome measure: GI50

Check out these entries, answers already filled in.
C=C(C)[C@@H]1CC[C@]2(COC(C)=O)CC[C@]3(C)[C@H](CC[C@@H]4[C@@]5(C)CCCN(C(C)=O)C(C)(C)[C@@H]5CC[C@]43C)[C@@H]12 | 1190 nM
O=C(NC1CCCCC1)NS(=O)(=O)c1ccc(-n2nc3c(c2-c2cccs2)Cc2ccccc2-3)cc1 | 23300 nM
CN(C)c1ccc(O)c2c1CC1CC3C(N(C)C)C(=O)C(C(N)=O)=C(O)C3(O)C(=O)C1=C2O (stereo not drawn) | 13700 nM
COC(=O)[C@@H]1CCCN1C(=O)[C@@H]1CCCN1C(=O)[C@H](Cc1ccccc1)NC(=S)Nc1cc(C(F)(F)F)cc(C(F)(F)F)c1 | 2430 nM

Consider the record given below.
Lab book: GI50 of CCN(CC)CCCN1C(=O)c2c(c(C)c3c(oc4ccc(O)cc43)c2C)C1=O noted as 2640 nM

* * *

TGI listing for selected molecules.
- Test system: PC-3 prostate
- method notes: NCI tumour cell line growth inhibition, 48 h
A number alone suffices; assume µM.

CCN(CC)c1ccc2cc(C(=O)Nc3ccccc3OC)c(=N)oc2c1 | 59.6
CN1CCN(Cc2ccc(NC(=O)c3cnc(F)c(C#Cc4cnc(N)c5ncccc45)c3)cc2C(F)(F)F)CC1 | 10.1
O=CCOCc1cc2c(cc1Br)OCO2 | 59.6
CN1CN(c2ccccc2)C2(CCN(Cc3nc4ccccc4s3)CC2)C1=O | 28.8

Consider now this further molecule.
Quick note, TGI for CC1CCC(C(C)C2C(O)CC3C4CC=C5CC(O)CCC5(C)C4CCC32C)NC1 (configuration not stated) landed at 95.4

* * *

- Tested on: SF-295 CNS
- method notes: NCI tumour cell line growth inhibition, 48 h; in the data active means GI50 below about 0.43 µM; inactive means the rest
Log the outcome using a class from t (active), f (inactive)

CCC(/C=C(C)/C=C/C(=O)c1c(O)c(-c2ccc(O)cc2)c[nH]c1=O)CO (stereo unspecified) | f
C=C1C(=O)O[C@H]2[C@H]1CC/C(COC(=O)NCc1ccc(Cn3c(=O)sn(CCI)c3=O)cc1)=C\CC[C@@]1(C)O[C@@H]21 | f

### Prompt For this compound, state the assay outcome: N#Cc1c(-c2ccccc2)n([O-])c2ccccc2[n+]1=O
### Response f

### Prompt Per the assay record, what outcome was assigned to c1cc(N2CCN(c3ccc(C4=NCCN4)cc3)CC2)ccc1C1=NCCN1 ?
### Response f

### Prompt Give the logged outcome of this assay for the following compound: C=C(C)[C@@H]1CC[C@]2(COC(C)=O)CC[C@]3(C)[C@H](CC[C@@H]4[C@@]5(C)CCCN(C(C)=O)C(C)(C)[C@@H]5CC[C@]43C)[C@@H]12
### Response f

### Prompt # fetch the recorded call for Cn1cc(C2=C(c3cn(C)c4cc(C(=O)O)ccc34)C(=O)NC2=O)c2ccccc21 here
### Response f

* * *

- System: SK-OV-3 ovarian
- method notes: NCI tumour cell line growth inhibition, 48 h
outcome measure: TGI (µM)
Quick note: give the figure in µM, leave out the unit.

Some molecules with known TGI results, for comparison:
COC(=O)Cc1ccc(Oc2nc3ccccc3nc2-c2cccs2)cc1 | 92.2
N=C1N(c2ccccc2)C(=S)C(=Nc2ccccc2)N1c1ccccc1 | 33

Kindly note the recorded TGI for COc1ccc(CN2CCc3c(Sc4ccccc4)nc(N)nc3C2=O)c(OC)c1 , which is 84.6

The value of TGI measured for the molecule CN1CCN(Cc2ccc(NC(=O)c3cnc(F)c(C#Cc4cnc(N)c5ncccc45)c3)cc2C(F)(F)F)CC1 turned out to be 8.7

// CCN(CCCNC(=O)Cc1cc(=O)oc2cc(N(C)C)ccc12)CCNc1ccnc2cc(Cl)ccc12 : TGI value = 56.5

Looking up COC(=O)c1c2c(c(C)[n+]([O-])c1C)C(=O)C(NCc1cccc(Cl)c1)=CC2=O , I found its TGI recorded as 12.8

* * *

- Test system: HCT-15 colon
- method notes: NCI tumour cell line growth inhibition, 48 h
outcome measure: GI50

Recorded GI50, per entry:
O[C@H]1C=C2[C@H](C[C@@H]1O)CN1C[C@H]2c2cc3c(cc21)OCO3 | 30.1 µM
COC(=O)c1cc2cc(-c3ccc(OC)cc3)cnc2[nH]1 | 0.6 µM

The reported value for Cc1nnc([S-])o1.[Au+].c1ccc([PH+](c2ccccc2)c2ccccc2)cc1 in terms of GI50 is 1.49 µM

Memo: CCCCN(CCCC)CC(O)c1ccc(OCc2ccccc2)c2ccccc12 (stereo unspecified) , reported GI50: 2.58 µM

* * *

- Tested on: OVCAR-8 ovarian
- method notes: NCI tumour cell line growth inhibition, 48 h
outcome measure: TGI

O[C@H]1C=C2[C@H](C[C@@H]1O)CN1C[C@H]2c2cc3c(cc21)OCO3 | > 100 µM
c1cc(N2CCN(c3ccc(C4=NCCN4)cc3)CC2)ccc1C1=NCCN1 | > 100 µM
COc1cc(C(=O)C(CO)Oc2ccccc2OC)ccc1O (stereo unspecified) | > 100 µM
Clc1cccc(Cl)c1C(Nc1nncs1)Nc1nncs1 | > 100 µM
O=S(=O)(O)c1ccc2c(N=Nc3cccc4ccccc34)c(O)c(S(=O)(=O)O)cc2c1 | > 100 µM

Turning now to a further molecule:
OVCAR-8 ovarian assay, molecule O=[N+]([O-])c1cccc2nc3ccccc3c(NCCO)c12 , recorded TGI = 0.0192 µM

* * *

- Tested on: HOP-62 NSCLC
- method notes: NCI tumour cell line growth inhibition, 48 h
outcome measure: GI50

Example entries and their recorded answers appear below.
C=C(C)[C@@H]1CC[C@]2(COC(C)=O)CC[C@]3(C)[C@H](CC[C@@H]4[C@@]5(C)CCCN(C(C)=O)C(C)(C)[C@@H]5CC[C@]43C)[C@@H]12 | 1.69 µM
COc1cc(-c2cc(/C=C3\C(=O)Nc4ccc(Cl)cc43)[nH]n2)cc(OC)c1OC | 5.14 µM
CSc1nn2c(-c3ccc4ccccc4c3)ccnc2c1C#N | 1.09 µM
O=C(NNC(=O)C1CCN(S(=O)(=O)c2ccc(-c3ccccc3)cc2)CC1)c1ccc(C(F)(F)F)cc1 | 5.46 µM
COc1ccc2c(c1)CC[C@@H]1[C@@H]2CC[C@]2(C)C(c3ccsc3)=C(/C=C/C(=O)c3ccccc3)C[C@@H]12 | > 100 µM
COC(=O)[C@@H]1CCCN1C(=O)[C@@H]1CCCN1C(=O)[C@H](Cc1ccccc1)NC(=S)Nc1cc(C(F)(F)F)cc(C(F)(F)F)c1 | 4.56 µM
Cc1ccc(NS(=O)(=O)c2ccc(-c3cnc(C4CC4)o3)cc2)cc1C | 0.557 µM
CCCn1c2c(c3ccccc3c1=O)C(=O)c1cc3c(cc1-2)OCO3 | > 100 µM

For the next question, use this compound.
GET /values?item= CCSc1ccc2c(c1)N(CCCN1CCN(C)CC1)c1ccccc1S2 &system= HOP-62 NSCLC returns GI50: 2.84 µM
